- Test system: PRKACA-PRKAR2A interaction (SmBiT-PRKACA / LgBiT-PRKAR2A), protein kinase A
- Set-up: NanoLuc complementation counter-screen in cell extract, PRKACA with PRKAR2A, loss of luminescence, detects NanoLuc interference
- appliedConditions: counter-screen for NanoLuc interference; 0.5 h, 20 µM; inhibitor
Where a name gives a salt, the structure may show the parent alone.
measuredQuantity: Inh (PKA) (%)
Please give a number only; it is taken to be in %.

Noted for COc1c2occc2cc2ccc(=O)oc12 : its Inh (PKA) reads 2.167

For record Cn1ncnc1[C@H]1c2n[nH]c(=O)c3cc(F)cc(c23)N[C@@H]1c1ccc(F)cc1 the listed Inh (PKA) is 5.771

get_value(item= Cc1c(OCC(F)(F)F)ccnc1C[S@@+]([O-])c1nc2ccccc2[nH]1 , readout=Inh (PKA)) returns 2.726

The molecule identified as CCOC(=O)C1=C(N)Oc2ccc(Br)cc2[C@H]1[C@H](C#N)C(=O)OCC registered its Inh (PKA) at 18.52

For reference, reported Inh (PKA) for COc1cc(N2CCC(N3CCN(C)CC3)CC2)ccc1Nc1ncc(Cl)c(Nc2ccccc2P(C)(C)=O)n1 stands at 6.926

The reported Inh (PKA) of the molecule COc1cccc(-c2cc(=O)c3ccccc3o2)c1N was 12.91

Recorded Inh (PKA) (molecule N[C@@H](CCNCc1ccc(Cl)cc1)C(=O)N1CCCCC1 [UM0142648:01, UAMC 00039 dihydrochloride] ): -0.6597

Query CCN(CC)CCCC(C)Nc1nc(C)cc(Nc2ccc3nc(C)cc(N)c3c2)n1 (stereo not drawn) yields Inh (PKA) of 2.521

Lookup result for CN(C)CCN1C(=O)c2cccc3cc(N)cc(c23)C1=O [UM0141483:01, Amonafide] ; measured Inh (PKA): 12.14

Recorded Inh (PKA) (molecule CN1CCN(c2ccc(Nc3cc(-c4cccc(-n5ccc6cc(C7CC7)cc(F)c6c5=O)c4CO)cn(C)c3=O)nc2)CC1 ): 0.8611

The recorded Inh (PKA) for CN[C@H](CC(C)C)C(=O)N[C@H]1C(=O)N[C@@H](CC(N)=O)C(=O)N[C@H]2C(=O)N[C@H]3C(=O)N[C@H](C(=O)N[C@H](C(=O)O)c4cc(O)cc(O)c4-c4cc3ccc4O)[C@H](O)c3ccc(c(Cl)c3)Oc3cc2cc(c3O[C@@H]2O[C@H](CO)[C@@H](O)[C@H](O)[C@H]2O[C@H]2C[C@](C)(N)[C@H](O)[C@H](C)O2)Oc2ccc(cc2Cl)[C@H]1O [UM0142186:01, Vancomycin hydrochloride] is -0.993

Reported Inh (PKA) ( C=CC(=O)Nc1cc(Nc2nccc(-c3c[nH]c4ccccc34)n2)c(OC)cc1N(C)CCN(C)C ) = 4.603

Kindly note the recorded Inh (PKA) for Cc1cc(C)nc(NS(=O)(=O)c2ccc(NC(=S)NC(=O)COc3ccc(Br)cc3Cl)cc2)n1 , which is 9.562

Lab book: Inh (PKA) of CC(C)(C)NC(=O)[C@H]1CC[C@H]2[C@@H]3CC[C@H]4NC(=O)C=C[C@]4(C)[C@H]3CC[C@]12C [UM0133719:02, Finasteride] noted as 1.602

Quick note, Inh (PKA) for O=C(COc1cccc2c(=O)[nH]ccc12)c1ccccc1 landed at 15.76
